# Subject Of Test: recombinant NMDA receptors (NR1100 and NR2A subunits) (Rattus norvegicus, UniProt P35439+Q00959)
# Sequence (Q00959 23-1464, other chains not shown): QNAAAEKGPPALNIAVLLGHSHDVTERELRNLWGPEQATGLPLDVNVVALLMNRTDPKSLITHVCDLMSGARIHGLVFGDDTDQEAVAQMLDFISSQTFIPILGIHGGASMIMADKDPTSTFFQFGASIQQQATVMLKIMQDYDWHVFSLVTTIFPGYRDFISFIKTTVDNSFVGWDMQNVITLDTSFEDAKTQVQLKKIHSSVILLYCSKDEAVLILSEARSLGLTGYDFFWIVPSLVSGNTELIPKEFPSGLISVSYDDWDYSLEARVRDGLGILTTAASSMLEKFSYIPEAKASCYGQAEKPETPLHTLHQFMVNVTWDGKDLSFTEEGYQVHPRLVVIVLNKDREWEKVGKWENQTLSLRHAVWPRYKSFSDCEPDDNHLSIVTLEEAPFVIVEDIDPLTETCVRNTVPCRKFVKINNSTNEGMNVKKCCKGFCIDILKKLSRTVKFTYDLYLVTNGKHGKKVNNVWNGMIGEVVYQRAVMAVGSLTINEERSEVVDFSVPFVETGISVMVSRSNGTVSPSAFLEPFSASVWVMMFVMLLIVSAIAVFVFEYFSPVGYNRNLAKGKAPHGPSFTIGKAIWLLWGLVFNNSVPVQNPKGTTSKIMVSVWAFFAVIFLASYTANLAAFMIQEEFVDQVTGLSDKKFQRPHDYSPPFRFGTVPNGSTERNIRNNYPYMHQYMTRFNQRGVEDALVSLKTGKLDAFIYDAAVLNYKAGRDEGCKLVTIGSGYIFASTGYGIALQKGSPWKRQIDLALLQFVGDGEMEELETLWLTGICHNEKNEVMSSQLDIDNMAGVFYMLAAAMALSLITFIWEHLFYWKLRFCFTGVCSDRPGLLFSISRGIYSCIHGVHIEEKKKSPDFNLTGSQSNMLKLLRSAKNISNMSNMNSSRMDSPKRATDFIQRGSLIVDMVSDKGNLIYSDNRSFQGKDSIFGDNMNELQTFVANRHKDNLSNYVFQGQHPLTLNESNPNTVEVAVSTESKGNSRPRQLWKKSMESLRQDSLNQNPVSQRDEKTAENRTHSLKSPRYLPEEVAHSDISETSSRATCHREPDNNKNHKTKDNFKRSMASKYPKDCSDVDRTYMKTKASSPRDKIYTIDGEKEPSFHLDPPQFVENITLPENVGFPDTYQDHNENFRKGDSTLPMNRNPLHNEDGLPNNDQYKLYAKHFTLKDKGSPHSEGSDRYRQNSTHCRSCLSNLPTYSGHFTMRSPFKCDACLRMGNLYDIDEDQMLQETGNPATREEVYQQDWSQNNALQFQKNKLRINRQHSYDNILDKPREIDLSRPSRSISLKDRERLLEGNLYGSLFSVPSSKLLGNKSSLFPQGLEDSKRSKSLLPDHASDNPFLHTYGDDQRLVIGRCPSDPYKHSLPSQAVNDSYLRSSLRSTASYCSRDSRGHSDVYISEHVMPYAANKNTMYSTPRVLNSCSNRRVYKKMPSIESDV
# Method: Two electrode voltage-clamp of Xenopus oocytes expressing recombinant NMDA receptors
Measured Attribute: EC50

According to the records, this molecule CN[C@H](CC(=O)O)C(=O)O [NMDA, N-methyl-D-aspartate] displays EC50 of 62 µM

###

# System: NMDA receptor
# Method: Whole cell patch clamp, NMDA-induced current in cultured chick spinal cord neurons
# Assay type: cell-based
# Condition Context: read-out: IC50 for inhibition of the NMDA response; in the absence of PS
Structures can show the parent of a compound that is named as a salt.
Measured Attribute: IC50 (µM)
Please give a number only; it is taken to be in µM.

According to the records, this compound CC(=O)[C@H]1CC[C@H]2[C@@H]3CC[C@@H]4C[C@@H](OS(=O)(=O)O)CC[C@]4(C)[C@H]3CC[C@]12C [5β3βS, 3β-hydroxy-5β-pregnan-20-one sulfate] displays IC50 of 143

###

# Subject Of Test: recombinant NMDA receptors (NR1100 and NR2A subunits) (Rattus norvegicus, UniProt P35439+Q00959)
# Construct: expressed in transfected cells; host or cells: Xenopus laevis oocytes injected with in vitro transcribed mRNA
# Method: Two electrode voltage-clamp of Xenopus oocytes expressing recombinant NMDA receptors
# Format: cell-based
# Condition Context: IC50, in the presence of 200 μM PS
Where a name gives a salt, the structure may show the parent alone.
Measured Attribute: pIC50
Give only the number. pIC50 is defined as minus log10 of concentration in molar units.

According to the records, this molecule CC(=O)[C@H]1CC[C@H]2[C@@H]3CC[C@@H]4C[C@@H](OS(=O)(=O)O)CC[C@]4(C)[C@H]3CC[C@]12C [5β3βS, 3β-hydroxy-5β-pregnan-20-one sulfate] displays pIC50 of 3.91

###

# System: NMDA receptor
# Method: Whole cell patch clamp, NMDA-induced current in cultured chick spinal cord neurons
# Type: cell-based
# Condition Context: read-out: IC50 for inhibition of the NMDA response; in the presence of 200 μM PS
Where a name gives a salt, the structure may show the parent alone.
Measured Attribute: IC50 (µM)
Please give a number only; it is taken to be in µM.

According to the records, this molecule CC(=O)[C@H]1CC[C@H]2[C@@H]3CC[C@@H]4C[C@@H](OS(=O)(=O)O)CC[C@]4(C)[C@H]3CC[C@]12C [5β3βS, 3β-hydroxy-5β-pregnan-20-one sulfate] displays IC50 of 120

###

# Method: Maximal solubility in the external buffer
# Type: physicochemical
# Condition Context: pH 7.2, aqueous buffer, 0.5% dimethyl sulfoxide
Measured Attribute: solubility

According to the records, this compound CC(=O)[C@H]1CC[C@H]2[C@@H]3CC[C@@H]4C[C@H](O)CC[C@]4(C)[C@H]3CC[C@]12C [5β3α, reference compound] displays solubility of 50 µM

Origin of measurements: patent US6083941A
